Every entry's value here was drawn from patent US20240409645A1.

Molecular target: T1, mouse common cytokine receptor γ-chain (IL-2Rγ) (mouse, UniProt P34902 23-263, limits assumed)
T1 construct: Recombinant mouse IL-2Rγ protein; also called mo IL-2R; mouse IL-2R gamma
T1 sequence (looked up): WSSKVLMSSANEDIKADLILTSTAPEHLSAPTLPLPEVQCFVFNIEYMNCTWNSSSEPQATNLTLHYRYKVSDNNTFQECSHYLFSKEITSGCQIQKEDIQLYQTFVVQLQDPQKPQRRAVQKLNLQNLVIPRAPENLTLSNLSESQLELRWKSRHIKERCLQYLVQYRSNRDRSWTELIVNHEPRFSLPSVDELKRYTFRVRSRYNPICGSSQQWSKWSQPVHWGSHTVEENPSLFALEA
Test: P.E. off-rate SPR
measured-parameter: koff (s⁻¹)

>  <binder>
FJ1427_P035MP07G03 (VHH, tested as periplasmic extract; also called Clone nr) VHH: QVQLVESGGGLVQAGGSLRLSCAASGRTLSRYAMGWFRQAPGKEREFVTANSWGGDTYYADSVQGRFTFSRDNAKNTVYLQMNSLQPEDTAVYYCAAAPTSFATTAYSSSNSYAYWGQGTQVTVSS

>  <readout-number>
0.099

$$$$
>  <binder>
FJ1427_P035MP07E02 (VHH, tested as periplasmic extract; also called Clone nr) VHH: QVQLVESGGGLVQAGGSLRLSCAASGRALSRLAMGWFRQAPGKEREFVVASSWGDDTFYADSVKGRFTFSRDNAKNTVYLQMNSLQPGDTAVYYCAAAPTSFATTAYSSSNSYAYWGQGTQVTVSS

>  <readout-number>
0.0132

$$$$
